# study.target: T1, Abp1, P15891
# T1 sequence (P15891 535-592, looked up): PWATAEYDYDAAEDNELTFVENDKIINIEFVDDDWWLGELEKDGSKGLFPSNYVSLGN
# protocol.text: SPOT array
# measurement.parameters: median of control spots 935
The recorded SPOT intensity of each item maps onto one of these classes: low-valued = under 3, mid-valued = from 3 up to 50, high-valued = 50 and over

Recorded results for 5 binders are shown here.
NAGIRPKFILALNDE mid-valued
QHQQRQPKRPKRYSL high-valued
YLTRPLPSTPNEDSR low-valued
PPPPPPPPPPLPQSL low-valued
SKAKRPKFLLDLQIK high-valued

Band assignment needed for "IVNKPLPPLPVAGSS" please.
high-valued

Band assignment needed for "ISPPASPPPEFDFSK" please.
low-valued

Band assignment needed for "RKLRTVPGVPLIHLT" please.
mid-valued

Band assignment needed for "IPSRPAPKPPSSASA" please.
high-valued
